Listed compounds paired with reported IC50
# Target Of Assay: binding between NRF2 and KEAP1 (Homo sapiens (Human))
# Sequence (Q14145 whole entry): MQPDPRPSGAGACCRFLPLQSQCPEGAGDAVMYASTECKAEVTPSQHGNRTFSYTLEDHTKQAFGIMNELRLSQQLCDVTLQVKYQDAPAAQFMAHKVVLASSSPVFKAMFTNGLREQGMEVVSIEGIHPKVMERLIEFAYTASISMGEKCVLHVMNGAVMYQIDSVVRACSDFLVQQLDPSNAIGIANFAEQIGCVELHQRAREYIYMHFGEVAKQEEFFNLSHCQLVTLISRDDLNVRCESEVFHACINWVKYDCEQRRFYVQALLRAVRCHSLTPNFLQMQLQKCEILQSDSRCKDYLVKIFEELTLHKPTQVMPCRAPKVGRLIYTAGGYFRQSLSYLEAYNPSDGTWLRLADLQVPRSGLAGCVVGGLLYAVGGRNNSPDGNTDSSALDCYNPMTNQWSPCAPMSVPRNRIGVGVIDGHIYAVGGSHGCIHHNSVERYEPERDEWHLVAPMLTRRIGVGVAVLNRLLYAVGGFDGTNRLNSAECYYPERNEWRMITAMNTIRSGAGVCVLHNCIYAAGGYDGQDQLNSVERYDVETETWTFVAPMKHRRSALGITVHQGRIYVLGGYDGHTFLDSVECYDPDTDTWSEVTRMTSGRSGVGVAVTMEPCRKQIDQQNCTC
# Assay Name: Binding assay: inhibition of binding between NRF2 and KEAP1 by BRET (NanoLuc-NRF2 and KEAP1-HaloTag cell lysates)
# Condition Parameters: Test Example 3; separated diastereomers; mean, N=2
# Protocol: The inhibitory activity of each compound on the binding between NRF2 and KEAP1 was measured by bioluminescence resonance energy transfer (BRET) assay. […] The NRF2-expressing cell lysate and the KEAP1-expressing cell lysate were adjusted so that the luminescence and fluorescence intensities per well were constant. […]
Could you give me the number in nM? Just the number is fine.

Below: 6 compounds and their reported IC50.
{"columns": ["Compound", "IC50 (nM)"],
 "data": [
  ["CC[C@@H]1CN(Cc2cc(C(c3ccc(C(C)=O)s3)C(C)(C)C(=O)O)ccc2C)S(=O)(=O)c2cnccc2O1 (single isomer, unassigned) [Compound D2]", 5.17],
  ["CC[C@@H]1CN(Cc2cc(C(c3ccc(C(C)=O)s3)[C@H](C)C(=O)O)ccc2C)S(=O)(=O)c2cnccc2O1 (some centres unmarked)", 1.01],
  ["CC[C@@H]1CN(Cc2cc(C(c3ccc(C(C)=O)s3)C(C)(C)C(=O)O)ccc2C)S(=O)(=O)c2cnccc2O1 (single isomer, unassigned) [Compound D1]", 0.17],
  ["CC[C@@H]1CN(Cc2cc(C(c3cc(OC)c(C(C)=O)s3)[C@H](C)C(=O)O)ccc2C)S(=O)(=O)c2cnccc2O1 (some centres unmarked)", 0.89],
  ["CC[C@@H]1CN(Cc2cc(C(c3ccc(C(C)=O)s3)[C@H](C)C(=O)O)ccc2C)S(=O)(=O)c2ccccc2O1 (some centres unmarked)", 0.71],
  ["CC[C@@H]1CN(Cc2cc([C@@H](c3ccc(C(C)=O)s3)[C@@H](C)C(=O)O)ccc2C)S(=O)(=O)c2ccccc2O1", 0.14]
]}

// query IC50 value for entry CC[C@@H]1CN(Cc2cc([C@@H](c3cc(OC)c(C(C)=O)s3)[C@@H](C)C(=O)O)ccc2C)S(=O)(=O)c2cnccc2O1
0.15

// query IC50 value for entry CC[C@@H]1CN(Cc2cc([C@@H](c3ccc(C(C)=O)s3)[C@@H](C)C(=O)O)ccc2C)S(=O)(=O)c2cnccc2O1
0.17

----------
# Test system: HCE-T cells
# Assay Name: Cell viability test in HCE-T cells (Cell Counting Kit-8, 24 hours)
# Format: cell-based, human
# Condition Parameters: mean, N=3
Listed compounds paired with reported Cytotoxic concentration (concentration that does not affect cell viability)
Could you give me the number in µM? Just the number is fine.

Below: 3 compounds and their reported Cytotoxic concentration (concentration that does not affect cell viability).
{"columns": ["Compound", "Experimental Value"],
 "data": [
  ["CC[C@@H]1CN(Cc2cc([C@@H](c3ccc(C(C)=O)s3)[C@@H](C)C(=O)O)ccc2C)S(=O)(=O)c2ccccc2O1", 111.4],
  ["CC[C@@H]1CN(Cc2cc([C@@H](c3ccc(C(C)=O)s3)[C@@H](C)C(=O)O)ccc2C)S(=O)(=O)c2cnccc2O1", 345.4],
  ["CC[C@@H]1CN(Cc2cc(C(c3ccc(C(C)=O)s3)C(C)(C)C(=O)O)ccc2C)S(=O)(=O)c2cnccc2O1 (single isomer, unassigned) [Compound D1]", 34.1]
]}

Could you now consider this next compound?
// query Cytotoxic concentration (concentration that does not affect cell viability) value for entry CC[C@@H]1CN(Cc2cc([C@@H](c3cc(OC)c(C(C)=O)s3)[C@@H](C)C(=O)O)ccc2C)S(=O)(=O)c2cnccc2O1
53.5
